Parameter: pIC50. Scope: all listed entries.
# EXPERIMENTAL_SYSTEM: Recombinant human cathepsin A (Homo sapiens, UniProt P10619)
# Construct: Recombinant human cathepsin A (residues 29-480, with a C-terminal 10-His tag); 10-His (C); purchased R&D Systems 1049-SE
# Sequence (P10619 29-312 limits assumed): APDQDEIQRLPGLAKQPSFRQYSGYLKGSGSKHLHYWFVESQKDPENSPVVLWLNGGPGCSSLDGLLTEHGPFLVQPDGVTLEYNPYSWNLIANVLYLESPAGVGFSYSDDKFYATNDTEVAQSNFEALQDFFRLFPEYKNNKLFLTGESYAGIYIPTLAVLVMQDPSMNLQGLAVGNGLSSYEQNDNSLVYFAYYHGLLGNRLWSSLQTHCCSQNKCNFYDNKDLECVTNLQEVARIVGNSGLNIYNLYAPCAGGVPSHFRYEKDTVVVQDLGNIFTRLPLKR
# Sequence (P10619 327-480 limits assumed): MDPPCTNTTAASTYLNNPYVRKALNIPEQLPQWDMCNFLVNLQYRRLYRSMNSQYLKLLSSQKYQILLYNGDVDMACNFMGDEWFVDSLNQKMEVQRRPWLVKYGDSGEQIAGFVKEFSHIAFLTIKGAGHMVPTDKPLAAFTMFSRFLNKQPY
# EXPERIMENTAL_DETAILS: Cathepsin A inhibitory activity
# Type: biochemical
# CONDITION_SUMMARY: pharmacological test "Cathepsin A inhibitory activity"; IC50 given as class A/B/C; read-out: Activity (2): Cathepsin A inhibitory activity, IC50 class
# From the text: a) Cathepsin A Inhibitory Activity Recombinant human cathepsin A (residues 29-480, with a C-terminal 10-His tag; R&D Systems, #1049-SE) was proteolytically activated with recombinant human cathepsin L (R&D Systems, #952-CY). […] Uncleaved substrate and product were then separated by a microfluidic capillary electrophoresis on a LabChip® 3000 Drug Discovery System (12-Sipper-Chip; Caliper Life Sciences) and quantified by determination of the respective peak areas. […]
pIC50: −log10 of the molar value.

As a guide, the following entries are already answered.
{"columns": ["COMPOUND", "EXPERIMENTAL_SYSTEM", "EXPERIMENTAL_RESULT"],
 "data": [
  ["COc1cccc([C@H](CC(=O)O)NC(=O)c2cc(O)n(-c3ccccc3)n2)c1OC [Example 170]", "Recombinant human cathepsin A (Homo sapiens, UniProt P10619)", "6.00 to 7.00"],
  ["COc1ccccc1[C@@H](NC(=O)c1cc(O)n(-c2ccccc2Cl)n1)[C@@H](O)C(=O)O [Example 216]", "Recombinant human cathepsin A (Homo sapiens, UniProt P10619)", "4.52 to 6.00"]
]}

Data request: Find pIC50 (Recombinant human cathepsin A (Homo sapiens, UniProt P10619)) for the entry O=C(O)CC(NC(=O)c1cc(O)n(-c2ccccc2F)n1)c1cccc(C(F)(F)F)c1Cl (centres unmarked) [Example 245]
Data returned: 6.00 to 7.00

Data request: Provide the documented pIC50 with Recombinant human cathepsin A (Homo sapiens, UniProt P10619) as the system for COc1ccc(C(CC(=O)O)NC(=O)c2cc(O)n(-c3ccccc3Cl)n2)c(C)c1 (centres unmarked) [Example 203]
Data returned: 6.00 to 7.00

Data request: API: value(readout=pIC50, system=Recombinant human cathepsin A (Homo sapiens, UniProt P10619)) for record O=C(O)C[C@H](NC(=O)c1cc(O)n(-c2cccc(Cl)c2)n1)c1ccc(C(F)(F)F)cc1 [Example 256]
Data returned: 4.52 to 6.00

====

Let's look at some compounds and their measured pIC50.
# EXPERIMENTAL_SYSTEM: Recombinant human cathepsin A (Homo sapiens, UniProt P10619)
# Construct: Recombinant human cathepsin A (residues 29-480, with a C-terminal 10-His tag); 10-His (C); purchased R&D Systems 1049-SE
# EXPERIMENTAL_DETAILS: Cathepsin A inhibitory activity
# Assay type: biochemical
# CONDITION_SUMMARY: read-out: Activity (2): Cathepsin A inhibitory activity, IC50 class
pIC50: −log10 of the molar value.

Reference set, count: 5
{"columns": ["COMPOUND", "pIC50"],
 "data": [
  ["O=C(O)CC(NC(=O)c1cc(O)n(-c2cccc(F)c2)n1)c1cccc(Cl)c1F (centres unmarked) [Example 322]", "6.00 to 7.00"],
  ["CC(C)(C)[C@](C)(O)COc1cc(C(=O)NC(CC(=O)O)Cc2ccccc2)nn1-c1ccccc1F (some centres unmarked) [Example 818]", "> 7.00"],
  ["O=C(O)C[C@H](NC(=O)c1cc(O)n(-c2ccccc2)n1)c1c(F)cccc1F [Example 103]", "6.00 to 7.00"],
  ["O=C(O)C[C@H](NC(=O)c1cc(O)n(-c2ccccc2F)n1)c1cccc(Cl)c1Cl [Example 399]", "> 7.00"],
  ["O=C(O)CC(NC(=O)c1cc(O)n(-c2ccc(F)cc2)n1)c1ccc(Cl)cc1F (centres unmarked) [Example 357]", "6.00 to 7.00"]
]}

Data request: For the compound shown here, O=C(O)C[C@H](NC(=O)c1cc(O)n(-c2cccc(F)c2)n1)c1ccc(C(F)(F)F)cc1 [Example 313] , give the reported pIC50.
Data returned: 4.52 to 6.00

Data request: Recorded pIC50 for O=C(O)CC(NC(=O)c1cc(O)n(-c2cccc(F)c2)n1)c1ccc(-c2ccc(F)cc2)cc1 (centres unmarked) [Example 333] , please?
Data returned: 4.52 to 6.00
